- target-desc: T1, Mature human CD3e(1-118)_FLAG-chLys_Avi (human)
- T1 construct: also called human CD3 epsilon antigen
- T1 sequence (chain, as listed by the source limits assumed): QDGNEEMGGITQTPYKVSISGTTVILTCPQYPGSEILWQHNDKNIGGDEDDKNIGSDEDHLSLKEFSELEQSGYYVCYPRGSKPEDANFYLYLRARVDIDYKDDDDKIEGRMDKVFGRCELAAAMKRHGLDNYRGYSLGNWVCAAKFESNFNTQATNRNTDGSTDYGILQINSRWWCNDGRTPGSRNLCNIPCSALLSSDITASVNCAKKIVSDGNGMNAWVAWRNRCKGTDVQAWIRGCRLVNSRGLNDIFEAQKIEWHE
- assay-text: BLI (Octet HTX); FabCys captured on Fab-specific sensor, CD3e antigen as analyte; 1:1 model
observed-property: koff (s⁻¹)

| binder | observed-property | measurement-unit | readout-value |
| --- | --- | --- | --- |
| MAB-12_h_FabCys (Fab, V domains shown, Tagless disulfide-bridged human FabCys produced in HEK293 cells; also called MAB-12 Fab-Cys) VH: EVQLVESGGGLVQPGGSLRLSCAASGFTFRSHYMTWVRQAPGKGLEWVANIDYEGTRTYYAESVKGRFTISRDNAKNSLYLQMNSLRAEDTAVYYCARGYSAEFAHRSGLDVWGQGTLVTVSS VL: QSVLTQPPSASGTPGQRVTISCSGSSSNIGANYVYWYQQLPGTAPKLLIYRNNQRPSGVPDRFSGSKSGTSASLAISGLRSEDEADYYCAAWDRHSHGAVFGGGTKLTVLG | koff | s⁻¹ | 0.000188 |
| MAB-7_h_FabCys (Fab, V domains shown, Tagless disulfide-bridged human FabCys produced in HEK293 cells; also called MAB-7 Fab-Cys) VH: EVQLVESGGGLVQPGGSLRLSCAASGFTFKSYYMSWVRQAPGKGLEWVANIDYQSQHAYYAESVKGRFTISRDNAKNSLYLQMNSLRAEDTAVYYCARGYSAEFAHRSGLDVWGQGTLVTVSS VL: QSVLTQPPSASGTPGQRVTISCSGSSSNIGSNYVYWYQQLPGTAPKLLIYRNNQRPSGVPDRFSGSKSGTSASLAISGLRSEDEADYYCAAWDRHSHGAVFGGGTKLTVLG | koff | s⁻¹ | 0.000627 |
| MAB-8_h_FabCys (Fab, V domains shown, Tagless disulfide-bridged human FabCys produced in HEK293 cells; also called MAB-8 Fab-Cys) VH: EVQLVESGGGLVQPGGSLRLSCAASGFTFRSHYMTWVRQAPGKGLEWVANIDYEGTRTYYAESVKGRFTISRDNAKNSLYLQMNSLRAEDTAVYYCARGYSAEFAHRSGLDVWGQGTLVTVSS VL: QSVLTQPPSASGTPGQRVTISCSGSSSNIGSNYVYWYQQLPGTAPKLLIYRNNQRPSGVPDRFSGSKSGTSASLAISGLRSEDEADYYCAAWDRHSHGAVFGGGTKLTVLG | koff | s⁻¹ | 0.000258 |
